- tested_on: Adenosine receptor A2a (Homo sapiens)
- Sequence (P29274 whole entry): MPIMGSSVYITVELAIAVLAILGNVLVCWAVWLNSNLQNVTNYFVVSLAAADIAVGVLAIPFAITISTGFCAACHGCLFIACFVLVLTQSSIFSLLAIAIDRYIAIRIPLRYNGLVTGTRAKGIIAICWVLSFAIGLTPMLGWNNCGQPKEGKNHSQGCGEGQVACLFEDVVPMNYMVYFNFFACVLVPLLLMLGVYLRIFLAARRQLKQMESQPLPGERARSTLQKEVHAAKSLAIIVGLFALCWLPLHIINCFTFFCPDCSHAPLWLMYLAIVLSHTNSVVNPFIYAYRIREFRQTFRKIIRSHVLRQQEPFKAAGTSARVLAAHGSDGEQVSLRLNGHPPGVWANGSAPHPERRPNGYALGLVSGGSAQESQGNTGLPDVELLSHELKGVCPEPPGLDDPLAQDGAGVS
- run_description: Agonist activity at recombinant human adenosine A2A receptor expressed in CHO cell membranes assessed as stimulation of adenylyl cyclase activity by [alpha-32P]ATP assay
pEC50: −log10 of the molar value.
readout_name: pEC50

Look over these answered cases.
[
  {
    "molecule": "CCn1nnc([C@H]2O[C@@H](n3cnc4c(NCc5cccs5)nc(Cl)nc43)[C@H](O)[C@@H]2O)n1",
    "pEC50": 7.42
  },
  {
    "molecule": "CCn1nnc([C@H]2O[C@@H](n3cnc4c(NCc5ccco5)nc(Cl)nc43)[C@H](O)[C@@H]2O)n1",
    "pEC50": 7.22
  },
  {
    "molecule": "CCn1nnc([C@H]2O[C@@H](n3cnc4c(NCc5cccc(I)c5)ncnc43)C(O)C2O)n1 (single isomer, unassigned)",
    "pEC50": 8.54
  },
  {
    "molecule": "CCn1nnc([C@H]2O[C@@H](n3cnc4c(NC5CC5)nc(Cl)nc43)[C@H](O)[C@@H]2O)n1",
    "pEC50": 7.67
  },
  {
    "molecule": "CCn1nnc([C@H]2O[C@@H](n3cnc4c(NCc5cccc(Cl)c5)ncnc43)[C@H](O)[C@@H]2O)n1",
    "pEC50": 8.17
  },
  {
    "molecule": "CCn1nnc([C@H]2O[C@@H](n3cnc4c(NCC5CC5)nc(Cl)nc43)[C@H](O)[C@@H]2O)n1",
    "pEC50": 7.54
  }
]

(P) CCn1nnc([C@H]2O[C@@H](n3cnc4c(NCc5cccc(Br)c5)ncnc43)C(O)C2O)n1 (single isomer, unassigned)
(Q) CCn1nnc([C@H]2O[C@@H](n3cnc4c(NCC5CC5)ncnc43)[C@H](O)[C@@H]2O)n1
Challenge: So which one has the bigger pEC50 here, P or Q ? Could you answer with the label of the item you picked?
Response given: P
(P: 8.35, Q: 7.78)

(a) CCn1nnc([C@H]2O[C@@H](n3cnc4c(NCc5ccc(Cl)cc5F)nc(Cl)nc43)[C@H](O)[C@@H]2O)n1
(b) CCn1nnc([C@H]2O[C@@H](n3cnc4c(NCc5cccc(F)c5)nc(Cl)nc43)[C@H](O)[C@@H]2O)n1
(c) CCn1nnc([C@H]2O[C@@H](n3cnc4c(NCc5cccc(Cl)c5)nc(Cl)nc43)[C@H](O)[C@@H]2O)n1
(d) CCn1nnc([C@H]2O[C@@H](n3cnc4c(NCc5ccco5)ncnc43)C(O)C2O)n1 (single isomer, unassigned)
Challenge: Rank descending by pEC50. Enter labels, ranked according to the request.
Response given: c, b, d, a
(c: 7.80, b: 7.50, d: 7.27, a: 7.02)

(P) CCn1nnc([C@H]2O[C@@H](n3cnc4c(NCc5cccc(Br)c5)nc(Cl)nc43)[C@H](O)[C@@H]2O)n1
(Q) CCn1nnc([C@H]2O[C@@H](n3cnc4c(NC5CC5)ncnc43)[C@H](O)[C@@H]2O)n1
Challenge: For this pair, P and Q , which shows a numerically higher pEC50? Mark your selection by writing its label.
Response given: P
(P: 7.88, Q: 7.67)

(a) CCn1nnc([C@H]2O[C@@H](n3cnc4c(NCc5cccc(F)c5)ncnc43)C(O)C2O)n1 (single isomer, unassigned)
(b) CCn1nnc([C@H]2O[C@@H](n3cnc4c(NCc5ccc(Cl)cc5F)ncnc43)C(O)C2O)n1 (single isomer, unassigned)
Challenge: a or b : whose pEC50 is greater? Mark your selection by writing its label.
Response given: a
(a: 7.84, b: 7.39)
